# Test system: NCI-H1876 complex spheroid growth, % test/control
# experimental details: Anticancer human tumor NCI-H1876 cell line growth inhibition [Asc];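 also: compound exposure lasted 7 days starting three days after seeding; 100% = DMSO vehicle control wells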
# test conditions: second compound 1 µM; first compound 0.316 µM; stronger effect = lower value
readout label: viability, T/C (%)
Give the value in % but do not write % after it.

Ask | // query viability, T/C value for entry C#Cc1c(F)ccc2cc(O)cc(-c3ncc4c(N5CC6CCC(C5)N6)nc(OCC56CCCN5CC(F)C6)nc4c3F)c12 (stereo not drawn) + Cc1c(S(C)(=O)=O)c(-c2cc(F)cc(N3CCN(c4ccc(NS(=O)(=O)c5ccc(NC(CCN6CCC(C(=O)OCCCP(=O)(O)O)CC6)CSc6ccccc6)c(S(=O)(=O)C(F)(F)F)c5)cc4)CC3)c2)c(-c2ccc(Cl)cc2)n1C(C)C
Reply | 102

Ask | Returns the measured viability, T/C for the input compound. Input: COc1c(OCCCN2CCOCC2)ccc2c3n(c(=NC(=O)c4cnc(N)nc4)nc12)CCN3 + Cc1c(S(C)(=O)=O)c(-c2cc(F)cc(N3CCN(c4ccc(NS(=O)(=O)c5ccc(NC(CCN6CCC(C(=O)OCCCP(=O)(O)O)CC6)CSc6ccccc6)c(S(=O)(=O)C(F)(F)F)c5)cc4)CC3)c2)c(-c2ccc(Cl)cc2)n1C(C)C
Reply | 35

Ask | Fill blank: measured viability, T/C of the compound O=C(c1ccc(F)c(F)c1Nc1ccc(I)cc1F)N1CC(O)([C@@H]2CCCCN2)C1 + Cc1c(S(C)(=O)=O)c(-c2cc(F)cc(N3CCN(c4ccc(NS(=O)(=O)c5ccc(NC(CCN6CCC(C(=O)OCCCP(=O)(O)O)CC6)CSc6ccccc6)c(S(=O)(=O)C(F)(F)F)c5)cc4)CC3)c2)c(-c2ccc(Cl)cc2)n1C(C)C is ____.
Reply | 92

----------
For each entry below, report its viability, T/C value.
# System: NCI-H1876 complex spheroid growth, % test/control
# experimental details: Anticancer human tumor NCI-H1876 cell line growth inhibition [Asc];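 also: compound exposure lasted 7 days starting three days after seeding; 100% = DMSO vehicle control wells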
# test conditions: second compound 1 µM; first compound 10 µM; stronger effect = lower value
State just the number; it will be interpreted in %.

Ask | Fill blank: measured viability, T/C of the compound O=C(c1cc(Cc2n[nH]c(=O)c3ccccc23)ccc1F)N1CCN(C(=O)C2CC2)CC1 + CNC(C)C(=O)NC1CN(S(=O)(=O)c2cccc(S(=O)(=O)N3CCC4CCC(C(=O)NC(c5ccccc5)c5ccccc5)N4C(=O)C(NC(=O)C(C)NC)C3)c2)CCC2CCC(C(=O)NC(c3ccccc3)c3ccccc3)N2C1=O is ____.
Reply | 56.6

Ask | # lookup: viability, T/C of C=C(F)C(=O)N1CCN(c2nc(OCC3CCCN3C)nc3c2CCN(c2cccc4cccc(Cl)c24)C3)CC1CC#N (configuration not stated) + Cc1c(S(C)(=O)=O)c(-c2cc(F)cc(N3CCN(c4ccc(NS(=O)(=O)c5ccc(NC(CCN6CCC(C(=O)OCCCP(=O)(O)O)CC6)CSc6ccccc6)c(S(=O)(=O)C(F)(F)F)c5)cc4)CC3)c2)c(-c2ccc(Cl)cc2)n1C(C)C
Reply | 2.82

----------
Would you mind telling me the reported viability, T/C of each entry?
# Tested on: NCI-H1876 complex spheroid growth, % test/control
# experimental details: Anticancer human tumor NCI-H1876 cell line growth inhibition [Asc];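 also: compound exposure lasted 7 days starting three days after seeding; 100% = DMSO vehicle control wells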
# test conditions: second compound 0.316 µM; first compound 0.03 µM; stronger effect = lower value
Report as a plain number; the unit % is understood.

Ask | Can you look up the measured viability, T/C of CCN1C(C(=O)NC23CCC(C(=O)O)(CC2)CC3)C(c2cccc(Cl)c2F)C2(C(=O)Nc3cc(Cl)ccc32)C12CCCCC2 (stereo not given) + CNC(C)C(=O)NC1CN(S(=O)(=O)c2cccc(S(=O)(=O)N3CCC4CCC(C(=O)NC(c5ccccc5)c5ccccc5)N4C(=O)C(NC(=O)C(C)NC)C3)c2)CCC2CCC(C(=O)NC(c3ccccc3)c3ccccc3)N2C1=O for me?
Reply | 102

Ask | Name the reported viability, T/C value associated with the compound Cc1nc(N2CCC3(CC2)COC(C)C3N)c(CO)nc1Sc1ccnc(N)c1Cl (stereo not given) + Cc1c(S(C)(=O)=O)c(-c2cc(F)cc(N3CCN(c4ccc(NS(=O)(=O)c5ccc(NC(CCN6CCC(C(=O)OCCCP(=O)(O)O)CC6)CSc6ccccc6)c(S(=O)(=O)C(F)(F)F)c5)cc4)CC3)c2)c(-c2ccc(Cl)cc2)n1C(C)C
Reply | 89.7

Ask | Param item = CCN1C(C(=O)NC23CCC(C(=O)O)(CC2)CC3)C(c2cccc(Cl)c2F)C2(C(=O)Nc3cc(Cl)ccc32)C12CCCCC2 (stereo not given) + Cc1c(S(C)(=O)=O)c(-c2cc(F)cc(N3CCN(c4ccc(NS(=O)(=O)c5ccc(NC(CCN6CCC(C(=O)OCCCP(=O)(O)O)CC6)CSc6ccccc6)c(S(=O)(=O)C(F)(F)F)c5)cc4)CC3)c2)c(-c2ccc(Cl)cc2)n1C(C)C ; retrieve measured viability, T/C.
Reply | 96.4

Ask | If you can, please state the reported viability, T/C value of NC(=O)C(=Cn1cnc(-c2cc(C(F)(F)F)cc(C(F)(F)F)c2)n1)c1cncnc1 + CNC(C)C(=O)NC1CN(S(=O)(=O)c2cccc(S(=O)(=O)N3CCC4CCC(C(=O)NC(c5ccccc5)c5ccccc5)N4C(=O)C(NC(=O)C(C)NC)C3)c2)CCC2CCC(C(=O)NC(c3ccccc3)c3ccccc3)N2C1=O .
Reply | 90.1

Ask | What value of measured viability, T/C is listed for Cc1nc(N2CCC3(CC2)COC(C)C3N)c(CO)nc1Sc1ccnc(N)c1Cl (stereo not given) + CNC(C)C(=O)NC1CN(S(=O)(=O)c2cccc(S(=O)(=O)N3CCC4CCC(C(=O)NC(c5ccccc5)c5ccccc5)N4C(=O)C(NC(=O)C(C)NC)C3)c2)CCC2CCC(C(=O)NC(c3ccccc3)c3ccccc3)N2C1=O ?
Reply | 93.8
